Please go through the items and note down their TGI.
tested on: RPMI-8226 leukemia; experiment: NCI tumour cell line growth inhibition, 48 h
One number for each entry, in µM.

Below, 5 compounds whose answers are already recorded.
| compound | unit.abbreviation | TGI |
| --- | --- | --- |
| CCC/C=C/C=C\C(=O)O[C@@H]1[C@@H](C)[C@]2(O)[C@@H]3C=C(C)C(=O)[C@H]3CC(COC(C)=O)=C[C@H]2[C@@H]2C(C)(C)[C@]12OC(C)=O | µM | 95.8 |
| O=C(Nc1cccc(-n2ccc3c(NC(=O)c4ccccc4)nccc32)c1)c1ccc(Cl)c(Cl)c1 | µM | 1.16 |
| Cl.[O-]c1cccc2cccnc12.[O-]c1cccc2cccnc12.[O-]c1cccc2cccnc12.[O-]c1cccc2cccnc12.[Ti+4] | µM | 2.67 |
| CN(C)C[C@@H]1CCn2cc(c3ccccc32)C2=C(C(=O)NC2=O)c2cn(c3ccccc23)CCO1 | µM | 4.02 |
| CC(C)(CN1CCCCC1)C(=O)CC(SCCS(=O)(=O)O)c1ccccc1 (stereo not given) | µM | 46.9 |

State recorded TGI for all listed compounds.
1. O=C1c2c(c3c4ccccc4n(CCCCCCN4CCOCC4)c3c3[nH]c4ccccc4c23)C(=O)N1O
2. COC1=C(OC)C(=O)C(C/C=C/c2c(Cl)nc3sccn23)=C(C)C1=O
3. C=C(C)C1CC=C(C)C(O)([C@@]2(O)C[C@H](C(=C)C)CC=C2C)C1 (stereo not given in full)

A.
[7.76, 27.5, 48.7]

###

Could you please report measured TGI for the items listed next?
tested on: HT29 colon; test: NCI tumour cell line growth inhibition, 48 h

Solved cases (3 shown):
| compound | TGI |
| --- | --- |
| COc1ccccc1NC(=O)C(=O)C(c1cnc2ccc([N+](=O)[O-])cc2n1)[N+](=O)[O-] (centres undefined) | > 100 µM |
| COc1cc(C(=O)c2cnc(-c3ccc4cc[nH]c4c3)[nH]2)cc(OC)c1OC | 0.108 µM |
| COC1/C=C/OC2(C)Oc3c(C)c(O)c4c(O)c(c(/C=N/N(c5ccccc5)c5ccccc5)c(O)c4c3C2=O)NC(=O)C(C)=C/C=C/C(C)C(O)C(C)C(O)C(C)C(OC(C)=O)C1C (centres undefined) | 2.63 µM |

// input: 4 compounds below; output: TGI for each
1. CN(C)C[C@@H]1CCn2cc(c3ccccc32)C2=C(C(=O)NC2=O)c2cn(c3ccccc23)CCO1
2. CC(=O)OC1(C)CC(C)C(=O)C(C(O)CC2CC(=O)NC(=O)C2)C1 (centres undefined)
3. O=[N+]([O-])c1ccc(C2NC(=S)NC3c4cc([N+](=O)[O-])ccc4CCCC23)cc1 (centres undefined)
4. Cc1ccc(C(CCO)CCO)nc1

A.
1. > 10 µM
2. 0.133 µM
3. > 100 µM
4. > 100 µM

Dear colleague, could you please provide TGI for the compounds listed below?
1. COc1c(N2CCCCC2)c2c(=O)c3ccccc3oc2c2c3ccccc3n(C)c12
2. CC[C@@]1(O)C(=O)OCc2c1cc1n(c2=O)Cc2cc3cccc(N)c3nc2-1
3. O=[N+]([O-])c1cc(C(F)(F)F)cc2c1SC1=Nc3ccccc3CN12

A.
1. > 100 µM
2. > 100 µM
3. > 100 µM

I have 7 compounds here; please give me TGI for each one.
1. N#C/C(=C\c1ccccc1F)C(=O)c1ccccc1
2. O=C(C(=O)c1cccnc1)c1cccnc1
3. CN(C)c1ccc2cc3c(cc2c1)Oc1ccccc1N3.[Cl][Zn][Cl]
4. Cc1nccc2c3ccc(OCc4cn(-c5ccc(Br)cc5)nn4)cc3n(CCCc3ccccc3)c12
5. COc1cc2cnc3c4cc(O)ccc4ccc3c2cc1OC
6. O=C1/C=C/[C@@H](O)[C@@H]2C[C@@H](O)C[C@H]2/C=C/CCC[C@H](CCc2ccc(NC(=S)Nc3ccc4c(c3)C(=O)OC43c4ccc(O)cc4Oc4cc(O)ccc43)cc2)O1
7. Cc1nc2c(n1Cc1ccc(F)cc1)C(=O)c1ccccc1C2=O

A.
> 100 µM
> 100 µM
> 100 µM
> 100 µM
> 100 µM
3.61 µM
> 100 µM

Hi! Can you tell me TGI for each of these compounds?
1. N#Cc1ccc(O)c(C2=NCC(c3ccc(-c4ccccc4)cc3)O2)c1 (centres undefined)
2. Cn1c2ccccc2c2c(=O)n(CCCC(=O)NCCc3cnc[nH]3)c3c(-c4ccccc4)nnn3c21

A.
["24.1 µM", "17.9 µM"]
